The values you see were collected from patent US8372867B2.

Tested on: Aulacophora femoralis
Assay: Test against Aulacophora femoralis (leaf dip)
Format: in vivo
Conditions: 100 ppm of the active compound; second instar larvae; after 7 days
Catalogue of death rate readings, one per entry.
Kindly answer with a numeric value in %, unit omitted.

MOLECULE	MEASURED_ON	death rate / %
CC(C)C(=O)NCc1ccc(C2=NOC(c3cc(Cl)cc(Cl)c3)(C(F)(F)F)C2)cc1Br (stereo not shown)	Aulacophora femoralis	100
CC(=O)N(C)Cc1ccc(C2=NOC(c3cc(Cl)cc(Cl)c3)(C(F)(F)F)C2)cc1Br (stereo not shown)	Aulacophora femoralis	100
CC(=O)NCc1ccc(C2=NOC(c3cccc(C#N)c3)(C(F)(F)F)C2)cc1Br (stereo not shown)	Aulacophora femoralis	100

From here, focus on the item given below.
Lab note: need death rate for O=C(NCc1ccc(C2=NOC(c3cc(Cl)cc(Cl)c3)(C(F)(F)F)C2)cc1Br)C(F)(F)F (stereo not shown) on Aulacophora femoralis, anyone have it?
100
